Entries and their Kd values follow.
# system: SCO4122 (Streptomyces coelicolor)
# Sequence (Q9KYE8 1-182): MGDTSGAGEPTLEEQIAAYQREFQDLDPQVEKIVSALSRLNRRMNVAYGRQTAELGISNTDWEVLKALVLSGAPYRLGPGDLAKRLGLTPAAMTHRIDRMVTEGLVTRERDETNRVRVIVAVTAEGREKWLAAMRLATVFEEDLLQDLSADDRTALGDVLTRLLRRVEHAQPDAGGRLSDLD

structure string: O=C(N[C@H](CO)[C@H](O)c1ccc([N+](=O)[O-])cc1)C(Cl)Cl
Kd [µM]: 2000
//
structure string: CC[n+]1c(-c2ccccc2)c2cc(N)ccc2c2ccc(N)cc21
Kd [µM]: 1.39
//
structure string: O=C(O)c1cn(C2CC2)c2cc(N3CCNCC3)c(F)cc2c1=O
Kd [µM]: 31
//
structure string: CN(C)[C@@H]1C(=O)C(C(N)=O)=C(O)[C@@]2(O)C(=O)C3=C(O)c4c(O)cccc4[C@@](C)(O)[C@H]3C[C@@H]12
Kd [µM]: 2.68
//
structure string: [H]/N=C(/N)N[C@H]1[C@H](O)[C@@H](O)[C@H](O[C@@H]2O[C@@H](C)[C@](O)(C=O)[C@H]2O[C@@H]2O[C@@H](CO)[C@H](O)[C@@H](O)[C@@H]2NC)[C@@H](N/C(N)=N\[H])[C@@H]1O
Kd [µM]: 0.73

Taken from paper doi:10.1101/2024.02.28.577416v1.
